# assay method text: Phase I trial N10BOM: docetaxel plasma exposure after oral docetaxel with ritonavir
# Format: in vivo
# condition info: human, oral, 10 patients with SAEs and DLTs (≥grade 3), read-out: docetaxel AUC0-48 h
quantity kind: AUC(0-t) (ng·h/mL)

>  <input smiles>
CC(=O)O[C@@]12CO[C@@H]1C[C@H](O)[C@@]1(C)C(=O)[C@H](O)C3=C(C)[C@@H](OC(=O)[C@H](O)[C@@H](NC(=O)OC(C)(C)C)c4ccccc4)C[C@@](O)([C@@H](OC(=O)c4ccccc4)[C@H]21)C3(C)C

>  <quantity kind>
AUC(0-t)

>  <unit annotation>
ng·h/mL

>  <value measured>
1810

$$$$
